System under test: human TRPA1 (Homo sapiens)
Construct: expressed in transfected cells; host or cells: CHO cells
Sequence (O75762 whole entry): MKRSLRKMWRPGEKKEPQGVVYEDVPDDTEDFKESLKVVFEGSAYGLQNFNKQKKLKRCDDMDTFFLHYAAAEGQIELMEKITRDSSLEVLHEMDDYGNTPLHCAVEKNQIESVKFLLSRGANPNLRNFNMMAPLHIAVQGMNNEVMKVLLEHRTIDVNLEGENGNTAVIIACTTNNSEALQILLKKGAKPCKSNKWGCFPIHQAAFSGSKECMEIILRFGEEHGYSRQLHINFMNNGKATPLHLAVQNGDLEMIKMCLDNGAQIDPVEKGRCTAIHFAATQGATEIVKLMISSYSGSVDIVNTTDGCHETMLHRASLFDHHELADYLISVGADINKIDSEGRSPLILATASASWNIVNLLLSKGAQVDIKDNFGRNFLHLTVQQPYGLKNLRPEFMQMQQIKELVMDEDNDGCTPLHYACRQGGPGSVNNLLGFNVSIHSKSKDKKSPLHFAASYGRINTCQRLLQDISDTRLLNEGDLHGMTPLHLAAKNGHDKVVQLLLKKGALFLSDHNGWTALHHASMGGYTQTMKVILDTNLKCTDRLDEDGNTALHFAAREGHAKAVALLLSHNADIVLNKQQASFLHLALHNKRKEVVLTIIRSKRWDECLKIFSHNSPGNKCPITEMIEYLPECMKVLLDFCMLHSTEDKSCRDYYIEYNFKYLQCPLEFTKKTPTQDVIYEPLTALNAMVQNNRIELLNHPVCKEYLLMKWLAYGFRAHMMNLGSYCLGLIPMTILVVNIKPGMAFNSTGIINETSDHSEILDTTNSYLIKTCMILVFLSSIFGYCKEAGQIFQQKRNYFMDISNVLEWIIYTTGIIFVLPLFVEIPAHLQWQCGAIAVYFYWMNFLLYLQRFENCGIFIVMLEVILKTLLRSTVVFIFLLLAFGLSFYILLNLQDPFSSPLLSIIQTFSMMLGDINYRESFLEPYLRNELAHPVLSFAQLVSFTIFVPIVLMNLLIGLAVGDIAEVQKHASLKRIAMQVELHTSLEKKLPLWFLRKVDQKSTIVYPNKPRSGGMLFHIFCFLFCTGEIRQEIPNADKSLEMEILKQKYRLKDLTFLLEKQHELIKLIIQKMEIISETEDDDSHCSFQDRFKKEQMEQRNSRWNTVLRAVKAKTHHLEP
Measurement description: TRPA1 FLIPR Tetra calcium influx assay in CHO cells (block of cinnamaldehyde-induced calcium influx)
Assay type: cell-based
Protocol conditions: Table 2; CHO cells expressing TRPA1; agonist cinnamaldehyde 75 uM; 20 min compound incubation; Hill coefficient fixed to 1.5; read-out: hTRPA1 CHO Ca2+ AUC EVO (IC50)
Below, each entry is listed with its recorded log10 IC50.
Recorded endpoint: log10 IC50 (log10 of the value in nM)

- Compound: "C[C@H]1[C@H](F)C[C@@H](C(=O)NCc2cc(-c3cnc(C(F)(F)F)nc3)ccc2C#N)N1S(=O)(=O)c1ccc(F)cc1"
  log10 IC50: 0.55
- Compound: "C[C@H]1[C@H](F)C[C@@H](C(=O)NCc2cc(-c3cnc(C(F)(F)F)nc3)ncc2F)N1S(=O)(=O)c1cccc(Cl)c1 (stereo in doubt)"
  log10 IC50: 1.30
- Compound: "C[C@H]1[C@H](F)C[C@@H](C(=O)NCc2cc(-c3ccc(C(F)(F)F)nc3)ncc2F)N1S(=O)(=O)c1ccc(F)cc1"
  log10 IC50: 1.61
- Compound: "O=C(NCc1cc(-c2cnc(C(F)(F)F)nc2)ccc1F)[C@@H]1C[C@@H]2C[C@@H]2N1S(=O)(=O)c1ccc(F)cc1"
  log10 IC50: 0.33
- Compound: "C[C@H]1[C@H](F)C[C@@H](C(=O)NCc2cc(N3CC(OC(F)(F)F)C3)nc(C3CC3)n2)N1S(=O)(=O)c1ccc(F)cc1"
  log10 IC50: 1.74
- Compound: "O=C(NCc1cc(-c2cnc(C(F)(F)F)nc2)nc(C2CC2)n1)[C@@H]1[C@H]2C[C@H]2CN1S(=O)(=O)c1ccc(F)cc1"
  log10 IC50: 0.00
- Compound: "C[C@H]1[C@H](F)C[C@@H](C(=O)NCc2cc([C@H]3CC[C@@H](C(F)(F)F)CC3)c(F)cn2)N1S(=O)(=O)c1ccc(F)cc1"
  log10 IC50: 0.95
- Compound: "C[C@H]1[C@H](F)C[C@@H](C(=O)NCc2cc(Cl)nc(-c3cnc(C(F)(F)F)nc3)c2)N1S(=O)(=O)c1ccc(F)cc1"
  log10 IC50: 0.35
- Compound: "C[C@H]1[C@H](F)C[C@@H](C(=O)NCc2cn(-c3cnc(C(F)(F)F)nc3)nc2C(F)F)N1S(=O)(=O)c1ccc(F)cc1 [Example 7]"
  log10 IC50: 1.42
- Compound: "COc1nc(CNC(=O)[C@@H]2C[C@@H](F)[C@H](C)N2S(=O)(=O)c2ccc(F)cc2)cc(-c2cnc(C(F)(F)F)nc2)n1"
  log10 IC50: 1.11
- Compound: "C[C@H]1[C@H](F)C[C@@H](C(=O)NCc2cc(-c3cc(C(F)(F)F)nn3C)ncc2F)N1S(=O)(=O)c1ccc(F)cc1"
  log10 IC50: 1.26
- Compound: "O=C(NCc1cc(-c2cnc(C(F)(F)F)nc2)cc(F)c1F)[C@@H]1C[C@@H](F)CN1S(=O)(=O)c1ccc(F)cc1"
  log10 IC50: 1.59
- Compound: "C[C@H]1[C@H](F)C[C@@H](C(=O)NCc2cc(-c3cnc(C(F)(F)F)nc3)c(C#N)cn2)N1S(=O)(=O)c1ccc(F)cc1"
  log10 IC50: 2.09
- Compound: "C[C@H]1[C@H](F)C[C@@H](C(=O)NCc2cc(-c3cnc(C(F)(F)F)nc3)ncc2F)N1S(=O)(=O)c1cccc(F)c1"
  log10 IC50: 1.61
- Compound: "O=C(NCc1cc(-c2cnc(C(F)(F)F)nc2)nc(C2CC2)n1)[C@@H]1C[C@@H](F)CN1S(=O)(=O)c1ccc(F)cc1"
  log10 IC50: 1.75
- Compound: "C[C@H]1[C@H](F)C[C@@H](C(=O)NCc2cc(F)cc(-c3cnc(C(F)(F)F)cn3)c2)N1S(=O)(=O)c1ccc(F)cc1"
  log10 IC50: 0.91
- Compound: "C[C@H]1[C@H](F)C[C@@H](C(=O)NCc2cc(-c3cnc(C(F)(F)F)nc3)ncc2F)N1S(=O)(=O)c1ccc(Br)cc1"
  log10 IC50: 0.85
- Compound: "C[C@H]1[C@H](F)C[C@@H](C(=O)NCc2ccc(F)c(-c3cnc(C(F)(F)F)nc3)c2)N1S(=O)(=O)c1ccc(F)cc1 [Example 43]"
  log10 IC50: 0.97
- Compound: "C[C@H]1[C@H](F)C[C@@H](C(=O)NCc2cc(-c3cnc(C(F)(F)F)nc3)nc(C(F)(F)F)c2)N1S(=O)(=O)c1ccc(F)cc1"
  log10 IC50: 0.65
- Compound: "C[C@H]1CC[C@@H](C(=O)NCc2cc(-c3cnc(C(F)(F)F)nc3)ncc2F)N1S(=O)(=O)c1ccc(F)cc1"
  log10 IC50: 0.14
- Compound: "C[C@H]1CC[C@@H](C(=O)NCc2cc(-c3cnc(C(F)(F)F)nc3)ncn2)N1S(=O)(=O)c1ccc(F)cc1"
  log10 IC50: 0.72
- Compound: "C[C@H]1[C@H](F)C[C@@H](C(=O)NCc2cc(-c3ccc(C(F)(F)F)cc3)ncc2OC(F)(F)F)N1S(=O)(=O)c1ccc(F)cc1"
  log10 IC50: 0.44
- Compound: "CC1(C)[C@@H]2[C@@H](C(=O)NCc3ccc(F)c(-c4cnc(C(F)(F)F)nc4)c3)N(S(=O)(=O)c3ccc(F)cc3)C[C@@H]21"
  log10 IC50: 1.37
- Compound: "C[C@H]1[C@H](F)C[C@@H](C(=O)NCc2cc(-c3cnc(C(F)(F)F)nc3)c(F)cc2C#N)N1S(=O)(=O)c1ccc(F)cc1"
  log10 IC50: 0.94
- Compound: "C[C@H]1[C@H](F)C[C@@H](C(=O)NCc2cc(-c3cnc(C(F)(F)F)nc3)cnc2C(F)F)N1S(=O)(=O)c1ccc(F)cc1"
  log10 IC50: 0.37

Cited source for all entries: patent US10179782B2
